# reported Activity; entries follow
- Tested on: Mus musculus
- assay-remarks: Nephroprotective activity in CD1 Mus musculus (mouse) assessed as reduction of CCl4-induced plasma urea level at 20 mg/kg, po administered 30 min before and 3 hr after CCl4 challenge measured 48 hr post CCl4 challenge (reference value: 61.56 +/- 3.46 mg/dl)
- Assay type: functional
Reply with just the number (in mg/dL).

// below: answered compounds
smiles-repr | endpoint-unit | readout-value
COc1cc(O)cc2c1C(=O)[C@H](O[C@@H]1O[C@H](C)[C@@H](O)[C@H](O)[C@@H]1O)[C@@H](c1cc(O)c(OC)c(O)c1)O2 | mg/dL | 47.26
COc1ccc(-c2oc3cc(O[C@@H]4O[C@H](CO)[C@@H](O)[C@H](O[C@@H]5O[C@@H](C)[C@H](O)[C@@H](O)[C@H]5O)[C@H]4O)c(OC)c(O)c3c(=O)c2OC)cc1 | mg/dL | 44.78
COc1ccc([C@@H]2CC(=O)c3c(OC)cc(O[C@@H]4O[C@H](C)[C@@H](O)[C@H](O)[C@@H]4O)cc3O2)cc1O | mg/dL | 46.62
COc1c(O)cc([C@H]2Oc3cc(O)cc(O)c3C(=O)[C@@H]2O[C@@H]2O[C@H](C)[C@@H](O)[C@H](O)[C@@H]2O[C@@H]2O[C@H](C)[C@@H](O)[C@H](O)[C@@H]2O)cc1O | mg/dL | 49.43

Note: attention shifts to another entry.
Using the record for `C[C@H]1O[C@@H](Oc2cc(O)c3c(c2)O[C@H](c2cc(O)c(O)c(O)c2)CC3=O)[C@@H](O)[C@@H](O)[C@@H]1O` , state its measured Activity.
51.1
